- Assay: Tissue distribution of SDC-TRAP and degradation products in tumor-bearing mice (plasma, tumor, heart)
- Type: in vivo, Female SCID Mouse (H1975)
- Condition Set: female, SCID, mouse, in vivo, tissue distribution of SDC-TRAP-0154; 24 h; read-out: Tumor/Plasma Ratio
Recorded Endpoint: Kp

// query For the molecule CCNC(=O)c1nnc(-c2cc(C(C)C)c(O)cc2O)n1-c1ccc(Oc2ccc(C(=O)N3CCC(C(=O)OC4(CC)C(=O)OCc5c4cc4n(c5=O)Cc5c-4nc4ccc(O)cc4c5CC)CC3)cc2)cc1 (stereo not shown) [SDC-TRAP-0154] , give its reported Kp.
// result 2.68

====

- Assay: Tissue distribution of SDC-TRAP and degradation products in tumor-bearing mice (plasma, tumor, heart)
- Type: in vivo, Female SCID Mouse (H1975)
- Condition Set: female, SCID, mouse, in vivo, tissue distribution of SDC-TRAP-0056; 24 h; read-out: Tumor/Plasma Ratio
Recorded Endpoint: Kp
Lab note: jot down the number only; don't add units.

// query Provide measured Kp value, entry: CCc1c2c(nc3ccc(O)cc13)-c1cc3c(c(=O)n1C2)COC(=O)C3(CC)OC(=O)CN1CCN(c2ccc(-n3c(O)nnc3-c3cc(C(C)C)c(O)cc3O)cc2)CC1 (stereo not shown)
// result 40.3

====

- Assay: Artificial membrane permeability assay (PAMPA)
- Condition Set: Permeability (cm/s), same protocol, second table
Recorded Endpoint: Papp at 5 h (×10⁻⁶ cm/s)
Provide the reading as a plain figure in ×10⁻⁶ cm/s.

// query Please supply the value of reported Papp at 5 h for the item Cn1c(=O)c2c(ncn2C)n(C)c1=O
// result 14.3

====

- Assay: Mouse plasma stability (Examples 16-18)
- Assay type: in vitro ADME
- Condition Set: 5 μM, 1 h, 37° C.; sum of both peaks of parent chromatogram
Kindly state Mouse (5 μM) % Remaining 1 h (37° C.) * for each of the entries shown.
Write the answer as a number in %, unit excluded.

// query Could you please provide reported Mouse (5 μM) % Remaining 1 h (37° C.) * for CCc1c2c(nc3ccc(OC(=O)N4CCN(c5ccc(-n6c(O)nnc6-c6cc(C(C)C)c(O)cc6O)cc5)CC4)cc13)-c1cc3c(c(=O)n1C2)COC(=O)C3(O)CC (stereo not drawn) ? Thanks!
// result 77

// query Quickly give me recorded Mouse (5 μM) % Remaining 1 h (37° C.) * for CCc1c2c(nc3ccc(OC(=O)N(C)CCOCCn4ccc5cc(-n6c(O)nnc6-c6cc(C(C)C)c(O)cc6O)ccc54)cc13)-c1cc3c(c(=O)n1C2)COC(=O)C3(O)CC (stereo not drawn)
// result 46

// query Tell me measured Mouse (5 μM) % Remaining 1 h (37° C.) * for CCc1c2c(nc3ccc(O)cc13)-c1cc3c(c(=O)n1C2)COC(=O)[C@]3(O)CC [SN-38, reference compound] please.
// result 87

====

Could you please report measured Papp at 5 h for the items listed next?
- Assay: Artificial membrane permeability assay (PAMPA)
Report as: number unit

// query Using known records, supply Papp at 5 h for CCc1c2c(nc3ccc(OC(=O)N4CCC[C@H]4C(=O)N4CCC(CCn5ccc6cc(-n7c(O)nnc7-c7cc(C(C)C)c(O)cc7O)ccc65)CC4)cc13)-c1cc3c(c(=O)n1C2)COC(=O)[C@]3(O)CC
// result 0.00899 ×10⁻⁶ cm/s

// query Return Papp at 5 h for the following compound: CCc1c2c(nc3ccc(OC(=O)N4CCN(Cc5ccc(-n6c(O)nnc6-c6cc(C(C)C)c(O)cc6O)cc5)CC4)cc13)-c1cc3c(c(=O)n1C2)COC(=O)C3(O)CC (stereo not drawn)
// result 0.0122 ×10⁻⁶ cm/s

// query For CCc1c2c(nc3ccc(OC(=O)N(C)CCOCCn4ccc5cc(-n6c(O)nnc6-c6cc(C(C)C)c(O)cc6O)ccc54)cc13)-c1cc3c(c(=O)n1C2)COC(=O)C3(O)CC (stereo not drawn) , write its Papp at 5 h.
// result 0.00646 ×10⁻⁶ cm/s

Source: patent US20200316090A1
